The reader will find reported self-aminoacylation values listed item by item below.
System: biotinyl-Phe-oxazolone
experimentalDetails: self-aminoacylation, catalytic enhancement (BFO) (fold over background); higher = more active; k-Seq, kA / k0A0; sequences stand for … in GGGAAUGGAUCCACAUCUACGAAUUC…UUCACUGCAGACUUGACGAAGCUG
Fewer inactive variants are shown than the library holds.

entrySequence: ACUACCCUGGUCAUCGAGUAA [Fam2.1 aminoacylation ribozyme variant]
self-aminoacylation: 20.1
//
entrySequence: AUUCUCCCAGGUCAUCGGGUG [Fam2.2 aminoacylation ribozyme variant]
self-aminoacylation: 90
//
entrySequence: AUUACCCAGGUCACCGAGUGA [Fam2.1 aminoacylation ribozyme variant]
self-aminoacylation: 66.2

Switching to the query record.
Query string: Using biotinyl-Phe-oxazolone as the test system, report measured self-aminoacylation of AAGUUUCCUAAUAGUCCCAAG [Fam3.1 aminoacylation ribozyme variant] .
Result string: 2.59

====

Test system: biotinyl-Met-oxazolone
experimentalDetails: self-aminoacylation, catalytic enhancement (BMO) (fold over background); higher = more active; k-Seq, kA / k0A0; sequences stand for … in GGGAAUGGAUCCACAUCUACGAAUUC…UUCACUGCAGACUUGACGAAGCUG
Fewer inactive variants are shown than the library holds.
readout: self-aminoacylation
# output: bare number, no unit

A selection of reference data follows.
entrySequence: CCACACUUCUAGCAAUCGGUG [Fam1B.1 aminoacylation ribozyme variant]
self-aminoacylation: 3.47
--
entrySequence: CCACACUUCAAUCAGUCGGUC [Fam1B.1 aminoacylation ribozyme variant]
self-aminoacylation: 0.815
--
entrySequence: AAGUUUGCUAAUAAUUGCAAG [Fam3.1 aminoacylation ribozyme variant]
self-aminoacylation: 0.862

Query string: Return self-aminoacylation for the following sequence: CUUACCCUGGUCAUGGAGUGA [Fam2.1 aminoacylation ribozyme variant]
Result string: 3.59

Query string: Return self-aminoacylation for the following sequence: CGUACCCUGGUCAUCGAGUGA [Fam2.1 aminoacylation ribozyme variant]
Result string: 8.76

Query string: Return self-aminoacylation for the following sequence: AUUCACCUAGGUCAUCGGCCG [Fam2.2 aminoacylation ribozyme variant]
Result string: 4.04

====

The reader will find reported self-aminoacylation values listed item by item below.
System: biotinyl-Trp-oxazolone
experimentalDetails: self-aminoacylation, catalytic enhancement (BWO) (fold over background); higher = more active; k-Seq, kA / k0A0; sequences stand for … in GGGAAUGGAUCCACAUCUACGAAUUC…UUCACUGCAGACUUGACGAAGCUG
Fewer inactive variants are shown than the library holds.
# output: bare number, no unit

A selection of reference data follows.
entrySequence: AAGUUUGCUAAUAGUAGCUAG [Fam3.1 aminoacylation ribozyme variant]
self-aminoacylation: 1.14
//
entrySequence: AAGGUUGCUAAUAAUCGCAAG [Fam3.1 aminoacylation ribozyme variant]
self-aminoacylation: 1.59
//
entrySequence: AUUCAUCUGGGUCAUCGGGUG [Fam2.2 aminoacylation ribozyme variant]
self-aminoacylation: 7.66

Query string: Return self-aminoacylation for the following sequence: CUACUACAAACAAUCGGUCUG [Fam1A.1 aminoacylation ribozyme variant]
Result string: 0.73

Query string: Return self-aminoacylation for the following sequence: CUACCUCAAACAAUCGGCCUG [Fam1A.1 aminoacylation ribozyme variant]
Result string: 5.05

Query string: Return self-aminoacylation for the following sequence: ACUCGCCUAGGUCAUCGGGUG [Fam2.2 aminoacylation ribozyme variant]
Result string: 10.9

Query string: Return self-aminoacylation for the following sequence: AUAACCCUUGUCAUCGAGUGA [Fam2.1 aminoacylation ribozyme variant]
Result string: 7.89

Query string: Return self-aminoacylation for the following sequence: AUCCACCCAGGUCAUCGGGUG [Fam2.2 aminoacylation ribozyme variant]
Result string: 7.4

Query string: Return self-aminoacylation for the following sequence: AAGUUGGCUAAUAGUCUCAAG [Fam3.1 aminoacylation ribozyme variant]
Result string: 2.27

Query string: Return self-aminoacylation for the following sequence: GUGCUUCAAACAAUCGGUCUG [Fam1A.1 aminoacylation ribozyme variant]
Result string: 79.6

Query string: Return self-aminoacylation for the following sequence: AUUACGCUGGUCAUCGGGUGA [Fam2.1 aminoacylation ribozyme variant]
Result string: 9.36

Query string: Return self-aminoacylation for the following sequence: AAGUUUGCUAGUAGUCGCAUG [Fam3.1 aminoacylation ribozyme variant]
Result string: 1.4

Query string: Return self-aminoacylation for the following sequence: AUUCACCUUGCUCAUCGGGUG [Fam2.2 aminoacylation ribozyme variant]
Result string: 2.01

====

Tested on: biotinyl-Met-oxazolone
experimentalDetails: self-aminoacylation, catalytic enhancement (BMO) (fold over background); higher = more active; k-Seq, kA / k0A0; sequences stand for … in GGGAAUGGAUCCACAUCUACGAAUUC…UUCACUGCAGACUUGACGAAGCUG
Fewer inactive variants are shown than the library holds.
The reader will find reported self-aminoacylation values listed item by item below.
# output: bare number, no unit

A selection of reference data follows.
entrySequence: AUUCCCCUGGUUAUCGAGUGA [Fam2.1 aminoacylation ribozyme variant]
readout: self-aminoacylation
val: 10.2
--
entrySequence: AGUCACCUAGGUUAUCGGGUG [Fam2.2 aminoacylation ribozyme variant]
readout: self-aminoacylation
val: 4.56

Query string: Using biotinyl-Met-oxazolone as the test system, report measured self-aminoacylation of CUACUUCAACCAAUCGGGCUG [Fam1A.1 aminoacylation ribozyme variant] .
Result string: 1.24

Query string: Using biotinyl-Met-oxazolone as the test system, report measured self-aminoacylation of CUACUGCAAACAAUCGGGCUG [Fam1A.1 aminoacylation ribozyme variant] .
Result string: 1.69

Query string: Using biotinyl-Met-oxazolone as the test system, report measured self-aminoacylation of AAGUUUGCGAAUAGUCGCAAA [Fam3.1 aminoacylation ribozyme variant] .
Result string: 2.22

Query string: Using biotinyl-Met-oxazolone as the test system, report measured self-aminoacylation of AUUAGCCUGGUCAUCGAGUGA [Fam2.1 aminoacylation ribozyme variant] .
Result string: 7.22

Query string: Using biotinyl-Met-oxazolone as the test system, report measured self-aminoacylation of UUUACCCUGGUCAUCGAGCGA [Fam2.1 aminoacylation ribozyme variant] .
Result string: 3.05

====

Tested on: biotinyl-Trp-oxazolone
experimentalDetails: self-aminoacylation, catalytic enhancement (BWO) (fold over background); higher = more active; k-Seq, kA / k0A0; sequences stand for … in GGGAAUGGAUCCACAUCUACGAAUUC…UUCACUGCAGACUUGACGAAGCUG
Fewer inactive variants are shown than the library holds.
Kindly return class 1 if reported self-aminoacylation is no lower than 1; return class 0 if it is lower.

See these solved cases before continuing.
entrySequence: CCACACUUCAAGCCAUCGUUC [Fam1B.1 aminoacylation ribozyme variant]
category: class 0
--
entrySequence: AUUUACCUAGGUCAUAGGGUG [Fam2.2 aminoacylation ribozyme variant]
category: class 1
--
entrySequence: CCAGACUUCAAGCAAUCCGUC [Fam1B.1 aminoacylation ribozyme variant]
category: class 1
--
entrySequence: AAGUUUGCUAAUAGUUGCACG [Fam3.1 aminoacylation ribozyme variant]
category: class 1

Query string: API: above_or_equal(metric=self-aminoacylation, cutoff=1) for item AAGUUUGUUAAUAUUCGCAAG [Fam3.1 aminoacylation ribozyme variant]
Result string: class 1

====

Test system: biotinyl-Trp-oxazolone
experimentalDetails: self-aminoacylation, catalytic enhancement (BWO) (fold over background); higher = more active; k-Seq, kA / k0A0; sequences stand for … in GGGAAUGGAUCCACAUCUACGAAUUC…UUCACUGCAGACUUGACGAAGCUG
Fewer inactive variants are shown than the library holds.
Dear colleague, classification is by self-aminoacylation, with ranges listed here: bin 0: < 1; bin 1: ≥ 1 and < 7; bin 2: ≥ 7

entrySequence: AUUACCAUGGUCAUCGUGUGA [Fam2.1 aminoacylation ribozyme variant]
category: bin 1
--
entrySequence: AUUACCCUGGACAUCGAGUGC [Fam2.1 aminoacylation ribozyme variant]
category: bin 0
--
entrySequence: CUACUACAAACAAUCGGUCUU [Fam1A.1 aminoacylation ribozyme variant]
category: bin 0

Query string: In plain terms, what class is AUUACCCUGGUCCUCGCGUGA [Fam2.1 aminoacylation ribozyme variant] ?
Result string: bin 2

Query string: In plain terms, what class is AUUACACUGGUCACCGAGUGA [Fam2.1 aminoacylation ribozyme variant] ?
Result string: bin 2

====

Test system: biotinyl-Ile-oxazolone
experimentalDetails: self-aminoacylation, catalytic enhancement (BIO) (fold over background); higher = more active; k-Seq, kA / k0A0; sequences stand for … in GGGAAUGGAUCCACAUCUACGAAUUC…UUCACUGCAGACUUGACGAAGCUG
Fewer inactive variants are shown than the library holds.
readout: self-aminoacylation
# output: bare number, no unit

A selection of reference data follows.
entrySequence: GAGUCUGCUAAUAGUCGCAAG [Fam3.1 aminoacylation ribozyme variant]
self-aminoacylation: 1.99
//
entrySequence: CUACUACUAACAAUCGGUCUG [Fam1A.1 aminoacylation ribozyme variant]
self-aminoacylation: 0.764
//
entrySequence: CGACACUUAAAGCAAUCGGUC [Fam1B.1 aminoacylation ribozyme variant]
self-aminoacylation: 0.886
//
entrySequence: AUUACCCUGUGCAUCGAGUGA [Fam2.1 aminoacylation ribozyme variant]
self-aminoacylation: 2.47
//
entrySequence: ACUACCCUGGUCAACGAGUGA [Fam2.1 aminoacylation ribozyme variant]
self-aminoacylation: 3.48
//
entrySequence: AAGUUUGAUACUAGUCGCAAG [Fam3.1 aminoacylation ribozyme variant]
self-aminoacylation: 1.5

Switching to the query record.
Query string: Return self-aminoacylation for the following sequence: AUUACCCUGGUCAUCAAAUGA [Fam2.1 aminoacylation ribozyme variant]
Result string: 1.1
